Experiment: Pharmacokinetic studies in rat (i.v.)
Type: in vivo
Details: male, Sprague-Dawley, plasma, iv, 1.19 mg/kg, rat plasma, i.v., dose 1.19 mg/kg, 1 h, rat R01, read-out: Plasma concentration, R01

# molecule, resultUnits, concentration at 1 h
data = [
    ("CSc1ccc2[nH]cc(C[C@H]3CCCN3C)c2c1 [(R) I-1]", "ng/mL", 42.3),
]

====

Assay: Pharmacokinetic studies in rat (i.v.)
Assay type: in vivo
Details: male, Sprague-Dawley, plasma, iv, 1.19 mg/kg, rat plasma, i.v., dose 1.19 mg/kg, 4 h, rat R03, read-out: Plasma concentration, R03

# compound, resultUnits, concentration at 4 h
measured = [
    ("CSc1ccc2[nH]cc(C[C@H]3CCCN3C)c2c1 [(R) I-1]", "ng/mL", 3.27),
]

====

Assay: Liver microsomes stability, rat
Format: in vitro ADME
Conditions: male; Rat liver microsomes; read-out: Scaled-up CLint
experimentalReadout: CLint scaled at 2 μM (mL/min/kg)

# compound, experimentalReadout, observedValue
measured = [
    ("CSc1ccc2[nH]cc(C[C@H]3CCCN3C)c2c1 [(R) I-1]", "CLint scaled at 2 μM", 238),
]

====

Experiment: Pharmacokinetic studies in rat (i.v.)
Format: in vivo
Conditions: male, Sprague-Dawley, plasma, iv, rat plasma, i.v., dose per Dose column, estimated from 2 points only, first animal (R07/R04/R01/R10), read-out: Apparent t1/2 (converted)
experimentalReadout: half-life

# compound, observedValue
measured = [
    ("[2H]C([2H])(c1c[nH]c2ccc(OCCCCCN3C(=O)c4ccccc4C3=O)cc12)[C@H]1CCCN1C([2H])([2H])[2H] [(R) I-245]", "1.32 h"),
    ("[2H]C([2H])(c1c[nH]c2ccc(OCCCCN3C(=O)c4ccccc4C3=O)cc12)[C@H]1CCCN1C([2H])([2H])[2H] [(R) I-244]", "1.06 h"),
    ("[2H]C([2H])(c1c[nH]c2ccc(OCCCCCN3C(=O)C4CCCCC4C3=O)cc12)[C@H]1CCCN1C([2H])([2H])[2H] (mixture of isomers) [Rac (R) I-248]", "1.25 h"),
    ("COCCN1CCC[C@@H]1Cc1c[nH]c2ccc(OC)cc12 [(R) I-98]", "0.514 h"),
]

====

Assay: Liver microsomes stability, mouse
Assay type: in vitro ADME
Settings: mouse liver microsomes, With Cofactors, 60 min
experimentalReadout: Remaining Percentage (%)

# compound, observedValue
rows = [
    ("COCCN1CCC[C@@H]1Cc1c[nH]c2ccc(OC)cc12 [(R) I-98]", 14.54),
    ("[2H]C([2H])(c1c[nH]c2ccc(OCCCCCN3C(=O)c4ccccc4C3=O)cc12)[C@H]1CCCN1C([2H])([2H])[2H] [(R) I-245]", 0.25),
    ("[2H]C([2H])(c1c[nH]c2ccc(OCCCCCN3C(=O)C4CCCCC4C3=O)cc12)[C@H]1CCCN1C([2H])([2H])[2H] (mixture of isomers) [Rac (R) I-248]", 0.19),
    ("[2H]C([2H])(c1c[nH]c2ccc(OCCCCN3C(=O)c4ccccc4C3=O)cc12)[C@H]1CCCN1C([2H])([2H])[2H] [(R) I-244]", 0.00),
    ("COc1ccc2[nH]cc(CCN(C)C)c2c1 [5-MeO-DMT]", 39.30),
    ("O=C(O)Cc1ccccc1Nc1c(Cl)cccc1Cl [Diclofenac]", 33.71),
]

====

Target: UniProt:P41595
Sequence (P41595 whole entry): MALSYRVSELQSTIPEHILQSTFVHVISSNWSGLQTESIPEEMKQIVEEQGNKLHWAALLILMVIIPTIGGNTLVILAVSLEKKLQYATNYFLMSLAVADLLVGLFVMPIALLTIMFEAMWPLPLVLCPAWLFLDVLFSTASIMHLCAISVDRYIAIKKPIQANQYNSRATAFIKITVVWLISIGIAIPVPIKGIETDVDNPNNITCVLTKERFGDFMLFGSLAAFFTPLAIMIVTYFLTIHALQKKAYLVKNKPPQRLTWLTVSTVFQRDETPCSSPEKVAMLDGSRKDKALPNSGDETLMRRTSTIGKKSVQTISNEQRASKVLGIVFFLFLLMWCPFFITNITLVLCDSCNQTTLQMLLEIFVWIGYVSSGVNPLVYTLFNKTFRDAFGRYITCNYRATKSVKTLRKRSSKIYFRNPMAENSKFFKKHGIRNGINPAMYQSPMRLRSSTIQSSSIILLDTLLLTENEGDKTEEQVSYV
Test: Human 5-HT2B radioligand binding assay ([3H]-LSD)
experimentalReadout: Ki (nM)

# molecule, resultUnits, observedValue
measured = [
    ("CSc1ccc2[nH]cc(C[C@H]3CCCN3C)c2c1 [(R) I-1]", "nM", 9.82),
]

====

Experiment: Pharmacokinetic studies in rat (i.v.)
Assay type: in vivo
Conditions: male, Sprague-Dawley, plasma, iv, 1.19 mg/kg, rat plasma, i.v., dose 1.19 mg/kg, 1 h, rat R03, read-out: Plasma concentration, R03

# compound, concentration at 1 h / ng/mL
data = [
    ("CSc1ccc2[nH]cc(C[C@H]3CCCN3C)c2c1 [(R) I-1]", 65.8),
]

====

We begin with a simple list: items and their reported Remaining Percentage.
Assay: Liver microsomes stability, mouse
Assay type: in vitro ADME
Conditions: mouse liver microsomes, Without Cofactors, 30 min

# compound, Remaining Percentage / %
data = [
    ("[2H]C([2H])(c1c[nH]c2ccc(OCCCCCN3C(=O)c4ccccc4C3=O)cc12)[C@H]1CCCN1C([2H])([2H])[2H] [(R) I-245]", 100.00),
    ("O=C(O)Cc1ccccc1Nc1c(Cl)cccc1Cl [Diclofenac]", 89.49),
    ("[2H]C([2H])(c1c[nH]c2ccc(OCCCCN3C(=O)c4ccccc4C3=O)cc12)[C@H]1CCCN1C([2H])([2H])[2H] [(R) I-244]", 98.38),
    ("COCCN1CCC[C@@H]1Cc1c[nH]c2ccc(OC)cc12 [(R) I-98]", 100.00),
    ("[2H]C([2H])(c1c[nH]c2ccc(OCCCCCN3C(=O)C4CCCCC4C3=O)cc12)[C@H]1CCCN1C([2H])([2H])[2H] (mixture of isomers) [Rac (R) I-248]", 99.54),
    ("COc1ccc2[nH]cc(CCN(C)C)c2c1 [5-MeO-DMT]", 104.76),
]

====

We begin with a simple list: items and their reported AUC(0-t).
Test: Pharmacokinetic studies in rat (i.v.)
Type: in vivo
Conditions: male, Sprague-Dawley, plasma, iv, rat plasma, i.v., dose per Dose column, third animal (R09/R06/R03/R12), read-out: AUC0-tlast

# molecule, AUC(0-t) [ng·h/mL]
measured = [
    ("[2H]C([2H])(c1c[nH]c2ccc(OCCCCCN3C(=O)c4ccccc4C3=O)cc12)[C@H]1CCCN1C([2H])([2H])[2H] [(R) I-245]", 293),
    ("COCCN1CCC[C@@H]1Cc1c[nH]c2ccc(OC)cc12 [(R) I-98]", 397),
    ("[2H]C([2H])(c1c[nH]c2ccc(OCCCCCN3C(=O)C4CCCCC4C3=O)cc12)[C@H]1CCCN1C([2H])([2H])[2H] (mixture of isomers) [Rac (R) I-248]", 544),
    ("[2H]C([2H])(c1c[nH]c2ccc(OCCCCN3C(=O)c4ccccc4C3=O)cc12)[C@H]1CCCN1C([2H])([2H])[2H] [(R) I-244]", 366),
]

====

Experiment: Liver microsomes stability, rat
Assay type: in vitro ADME
Settings: rat liver microsomes, With Cofactors, 60 min
Strictly below 0.4% in Remaining Percentage: yes. Otherwise: no.

# molecule, assignedClass
measured = [
    ("[2H]C([2H])(c1c[nH]c2ccc(OCCCCCN3C(=O)c4ccccc4C3=O)cc12)[C@H]1CCCN1C([2H])([2H])[2H] [(R) I-245]", "yes"),
    ("[2H]C([2H])(c1c[nH]c2ccc(OCCCCN3C(=O)c4ccccc4C3=O)cc12)[C@H]1CCCN1C([2H])([2H])[2H] [(R) I-244]", "no"),
    ("[2H]C([2H])(c1c[nH]c2ccc(OCCCCCN3C(=O)C4CCCCC4C3=O)cc12)[C@H]1CCCN1C([2H])([2H])[2H] (mixture of isomers) [Rac (R) I-248]", "yes"),
    ("COCCN1CCC[C@@H]1Cc1c[nH]c2ccc(OC)cc12 [(R) I-98]", "no"),
    ("O=C(O)Cc1ccccc1Nc1c(Cl)cccc1Cl", "no"),
    ("COc1ccc2[nH]cc(CCN(C)C)c2c1", "yes"),
]

====

We begin with a simple list: items and their reported EC50.
Molecular target: human 5-hydroxytryptamine receptor 2A (5-HT2A) (Homo sapiens, UniProt P28223)
Sequence (P28223 whole entry): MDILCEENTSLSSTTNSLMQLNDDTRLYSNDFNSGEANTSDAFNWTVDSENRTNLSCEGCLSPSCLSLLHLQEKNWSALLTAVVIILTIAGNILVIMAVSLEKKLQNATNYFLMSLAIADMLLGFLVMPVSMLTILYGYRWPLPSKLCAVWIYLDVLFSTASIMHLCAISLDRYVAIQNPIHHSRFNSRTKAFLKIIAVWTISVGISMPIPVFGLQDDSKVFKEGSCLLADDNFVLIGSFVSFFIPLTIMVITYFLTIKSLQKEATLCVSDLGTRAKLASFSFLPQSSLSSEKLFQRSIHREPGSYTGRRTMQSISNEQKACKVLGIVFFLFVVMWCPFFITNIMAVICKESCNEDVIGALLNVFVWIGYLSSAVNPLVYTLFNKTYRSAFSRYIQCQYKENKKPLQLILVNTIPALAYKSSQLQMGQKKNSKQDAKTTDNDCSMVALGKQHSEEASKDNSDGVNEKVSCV
Experiment: Human 5-HT2A functional FLIPR assay (agonist mode)
Assay type: cell-based
Set-up: expressed in transfected cells; host or cells: Flp-In-293 (HEK293)
experimentalReadout: EC50 (nM)

# compound, experimentalReadout, observedValue
rows = [
    ("COCCN1CCC[C@@H]1Cc1c[nH]c2ccc(OC)cc12 [(R) I-98]", "EC50", 13),
    ("[2H]C([2H])(c1c[nH]c2ccc(OCCCCCN3C(=O)C4CCCCC4C3=O)cc12)[C@H]1CCCN1C([2H])([2H])[2H] (mixture of isomers) [Rac (R) I-248]", "EC50", 54),
    ("[2H]C([2H])(c1c[nH]c2ccc(OCCCCN3C(=O)c4ccccc4C3=O)cc12)[C@H]1CCCN1C([2H])([2H])[2H] [(R) I-244]", "EC50", 50),
    ("[2H]C([2H])(c1c[nH]c2ccc(OCCCCCN3C(=O)c4ccccc4C3=O)cc12)[C@H]1CCCN1C([2H])([2H])[2H] [(R) I-245]", "EC50", 120),
    ("CSc1ccc2[nH]cc(C[C@H]3CCCN3C)c2c1 [(R) I-1]", "EC50", 47),
]
